Value source: paper PMC6651501

ASSAY_READOUT: melting point

Guide cases for melting point, answers given:
>>> df
                                   compound  assay_readout  value_reported
0  Cn1cc(-c2ccnc(Nc3ccc(C(=O)NCCC(=O)NO)cc3)n2)c2ccccc21  melting point   164 to 167 °C
1  Cn1cc(-c2ccnc(Nc3ccc(C(=O)NCCCCCC(=O)NO)cc3)n2)c2ccccc21  melting point   168 to 170 °C
2  COc1cc(NC(=O)CCCC(=O)NO)ccc1Nc1nccc(-c2cn(C)c3ccccc23)n1  melting point   146 to 148 °C
3  Cn1cc(-c2ccnc(Nc3ccc(C(=O)NCCCCC(=O)NO)cc3)n2)c2ccccc21  melting point   144 to 147 °C
4  Cn1cc(-c2ccnc(Nc3ccc(C(=O)NO)cc3)n2)c2ccccc21 [Compound 10A]  melting point   108 to 111 °C
5  Cn1cc(-c2ccnc(Nc3ccc(C(=O)NCCCC(=O)NO)cc3)n2)c2ccccc21  melting point   165 to 168 °C

Task: For the compound Cn1cc(-c2ccnc(Nc3ccc(C(=O)Nc4ccccc4N)cc3)n2)c2ccccc21 [Compound 10B] , report melting point.
Output: 164 to 168 °C

Task: For the compound "COc1cc(NC(=O)CCCCC(=O)NO)ccc1Nc1nccc(-c2cn(C)c3ccccc23)n1" , report melting point.
Output: 118 to 120 °C

Task: For the compound "COc1cc(NC(=O)CCC(=O)NO)ccc1Nc1nccc(-c2cn(C)c3ccccc23)n1" , report melting point.
Output: 151 to 153 °C

Task: For the compound "Cn1cc(-c2ccnc(Nc3ccc(C(=O)NCCCCCCC(=O)NO)cc3)n2)c2ccccc21" , report melting point.
Output: 161 to 163 °C

====

TARGET_UNDER_TEST: EGFR (WT) (Homo sapiens, UniProt P00533)
Sequence (P00533 25-1210): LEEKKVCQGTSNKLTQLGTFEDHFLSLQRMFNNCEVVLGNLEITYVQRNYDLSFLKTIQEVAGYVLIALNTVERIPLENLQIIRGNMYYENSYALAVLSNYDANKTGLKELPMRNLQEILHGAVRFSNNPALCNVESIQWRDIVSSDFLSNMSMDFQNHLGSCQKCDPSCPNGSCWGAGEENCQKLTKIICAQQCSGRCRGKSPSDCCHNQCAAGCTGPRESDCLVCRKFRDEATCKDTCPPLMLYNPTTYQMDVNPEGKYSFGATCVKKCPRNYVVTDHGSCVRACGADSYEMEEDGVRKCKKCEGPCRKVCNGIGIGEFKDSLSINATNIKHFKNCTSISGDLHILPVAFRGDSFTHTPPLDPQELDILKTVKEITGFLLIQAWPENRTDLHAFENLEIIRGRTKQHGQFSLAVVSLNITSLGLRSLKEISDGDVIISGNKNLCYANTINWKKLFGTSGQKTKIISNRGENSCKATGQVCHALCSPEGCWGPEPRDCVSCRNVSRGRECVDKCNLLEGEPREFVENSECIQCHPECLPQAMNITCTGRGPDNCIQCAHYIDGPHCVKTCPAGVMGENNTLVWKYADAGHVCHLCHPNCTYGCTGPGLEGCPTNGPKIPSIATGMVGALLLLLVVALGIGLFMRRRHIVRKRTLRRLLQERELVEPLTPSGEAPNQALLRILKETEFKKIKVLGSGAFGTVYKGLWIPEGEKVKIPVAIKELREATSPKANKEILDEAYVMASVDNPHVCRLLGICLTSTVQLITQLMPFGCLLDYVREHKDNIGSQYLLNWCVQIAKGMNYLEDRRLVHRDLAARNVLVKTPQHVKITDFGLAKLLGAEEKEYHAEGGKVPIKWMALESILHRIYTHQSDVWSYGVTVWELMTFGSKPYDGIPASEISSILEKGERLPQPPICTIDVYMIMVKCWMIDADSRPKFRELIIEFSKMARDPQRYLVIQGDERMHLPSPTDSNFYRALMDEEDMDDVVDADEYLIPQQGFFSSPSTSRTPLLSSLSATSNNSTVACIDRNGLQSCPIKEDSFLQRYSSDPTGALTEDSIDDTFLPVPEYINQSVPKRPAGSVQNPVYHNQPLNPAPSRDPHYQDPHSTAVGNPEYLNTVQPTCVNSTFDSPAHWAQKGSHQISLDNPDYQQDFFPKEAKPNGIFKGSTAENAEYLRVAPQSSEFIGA
ASSAY_READOUT: IC50 (µM)
Give your result in µM as a bare value.

Task: Give IC50 for "COc1cc(NC(=O)CCCCCCC(=O)NO)ccc1Nc1nccc(-c2cn(C)c3ccccc23)n1" tested on EGFR (WT) (Homo sapiens, UniProt P00533).
Output: 5.7

====

System: HDAC (HeLa cell nuclear extract, mainly contains HDAC1 and 2)
ASSAY_OVERVIEW: In vitro HDACs inhibition fluorescent assay (HeLa cell nuclear extract)
TEST_PARAMETERS: read-out: HDAC IC50; HeLa cell nuclear extract as enzyme source
ASSAY_READOUT: IC50 (nM)

In [3]: df
Out[3]:
                                 cpd_smiles  value_reported
0  COc1cc(NC(=O)CCCCC(=O)NO)ccc1Nc1nccc(-c2cn(C)c3ccccc23)n1             397
1  COc1cc(NC(=O)CCCCCCC(=O)NO)ccc1Nc1nccc(-c2cn(C)c3ccccc23)n1              85
2  COc1cc(NC(=O)CCCCCC(=O)NO)ccc1Nc1nccc(-c2cn(C)c3ccccc23)n1             121

I = Cn1cc(-c2ccnc(Nc3ccc(C(=O)NCCCCCCC(=O)NO)cc3)n2)c2ccccc21
II = Cn1cc(-c2ccnc(Nc3ccc(C(=O)NCCCCC(=O)NO)cc3)n2)c2ccccc21
III = Cn1cc(-c2ccnc(Nc3ccc(C(=O)NCCCCCC(=O)NO)cc3)n2)c2ccccc21
Task: Ascending sort, IC50. # answer = labels listed in requested order
Output: III, I, II
(III: 23 nM, I: 105 nM, II: 462 nM)
